# target_or_test_system: T1, human CD40 full-length (human, UniProt P25942 21-277)
# T1 construct: Also used for CD40 of Daudi cells, of CD40-expressing HEK293 cells and of the BPS CD40/NFkB HEK293 reporter cells where the row says so; also called CD4001012; CHOK1SV/CD40
# T1 sequence (P25942 21-277): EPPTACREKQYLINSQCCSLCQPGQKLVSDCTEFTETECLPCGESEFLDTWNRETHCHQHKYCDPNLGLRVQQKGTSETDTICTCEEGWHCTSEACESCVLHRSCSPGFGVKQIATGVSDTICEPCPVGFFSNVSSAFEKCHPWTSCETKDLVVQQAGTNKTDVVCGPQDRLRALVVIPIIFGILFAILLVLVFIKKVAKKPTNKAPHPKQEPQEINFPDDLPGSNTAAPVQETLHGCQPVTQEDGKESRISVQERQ
# test_protocol: flow cytometry, CHOK1SV/human CD40 cells
measurement_kind: binding result

[[record]]
binder = "CD4001205 (Fc fusion, humanized 1D5 variant; not shown: wildtype human IgG1 Fc and its linker to the scFv) scFv: DIQMTQSPSSVSASVGDRVTITCRSSQSLLFSVNQKNYLAWYQQKPGKAPKLLIYWASTRESGVPDRFSGSGSGTDFTLTISSLQPEDFATYYCQHYYSYPWTFGQGTKVEIKGGGGSGGGGSGGGGSGGGGSQVQLVQSGAEVKKPGSSVKVSCKASGYTFSTSWISWVRQAPGQGLEWMGGILPGSGSTNYNEKFKGKVTITADESTSTAYMELSSLRSEDTAVYYCARGDDGSYVRWYFDHWGQGTLVTVSS"
measured_value = "binds"

[[record]]
binder = "CD4001185 (Fc fusion, humanized 1D5 variant; not shown: wild-type human IgG1 Fc and the Fc-to-scFv linker) scFv: DIQMTQSPSSVSASVGDRVTITCRSSQSLLFSVNQKNYLAWYQQKPGKAPKLLIYWASTRESGVPDRFSGSGSGTDFTLTISSLQPEDFATYYCQHYYSYPWTFGQGTKVEIKGGGGSGGGGSGGGGSGGGGSQVQLVQSGAEVKKPGSSVKVSCKASGYTFSTSWISWVRQAPGQGLEWIGGILPGSGSTNYNEKFKGKATFTADTSTSTAYMELSSLRSEDTAVYYCARGDDGSYVRWYFDHWGQGTLVTVSS"
measured_value = "binds"

[[record]]
binder = "CD4001206 (Fc fusion, humanized 1D5 variant; not shown: wildtype human IgG1 Fc and its linker to the scFv) scFv: DIQMTQSPSSVSASVGDRVTITCRSSQSLLFSVNQKNYLAWYQQKPGKAPKLLIYWASTRESGVPDRFSGSGSGTDFTLTISSLQPEDFATYYCQHYYSYPWTFGQGTKVEIKGGGGSGGGGSGGGGSGGGGSQVQLVQSGAEVKKPGSSVKVSCKASGYTFSTSWIEWIRQAPGQGLEWMGSILPGSGSTNYAQKFQGRVTITADTSTSTAYMELSSLRSEDTAVYYCARGDDGSYVRWYFDHWGQGTLVTVSS"
measured_value = "binds"


Data origin: patent US20260217833A1
